# System: P388 leukemia ip, CD2F1 mice, survival T/C
# Assay: NCI In Vivo Anticancer Drug Screen. Data for tumor model P388 Leukemia (intraperitoneal) in CD2F1 (CDF1) mice
# Reported conditions: endpoint: median survival time; dose: 50.0 mg/kg/injection; schedule: Q01DX005 (ip); vehicle: saline with Tween-80; higher = longer survival
Toxic doses and inconclusive results are not listed.
Measured parameter: T/C

Data request: Look up T/C: `CCN(CC)CCNc1cc(Nc2ccc([N+](=O)[O-])cc2)ccc1OC`
Data returned: 99 % of control

Data request: Now consider `COc1ccc(N=C(Cl)c2ccc(Br)cc2)cc1` and answer again.
Data returned: 97 % of control

Data request: Now consider CCOC(=O)CC1(O)CS/C(=C(\C#N)C(=O)OCC)S1 (stereo not drawn) and answer again.
Data returned: 102 % of control

Data request: Now consider CC(C)(C)OC(=O)NC1CN(OCc2ccccc2)C1=O (stereo not drawn) and answer again.
Data returned: 100 % of control
